Where do these numbers come from? They come from patent US20110118447A1.

Target: binding partner of C5A (XPA23)
Assay: Biacore, K-off
Measurement type: fold difference in affinity vs original (fold)
# number only, unit fold dropped from output

In the examples that follow, each entry is paired with its recorded fold difference in affinity vs original.
>>> measured_value("C5A (XPA23) VH I51D (antibody, V domains shown) VH: EVQLLESGGGLVQPGGSLRLSCAASGFTFSKYFMFWVRQAPGKGLEWVSVDSPSGGMTRYADSVKGRFTISRDNSKNTLYLQMNSLRAEDTAVYYCARVGYGGNSDYWGQGTLVTVSS VL: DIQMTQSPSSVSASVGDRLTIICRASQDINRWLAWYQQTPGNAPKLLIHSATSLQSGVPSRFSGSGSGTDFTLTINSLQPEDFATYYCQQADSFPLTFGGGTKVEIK")
0.07
>>> measured_value("C5A (XPA23) VH Y101H (antibody, V domains shown) VH: EVQLLESGGGLVQPGGSLRLSCAASGFTFSKYFMFWVRQAPGKGLEWVSVISPSGGMTRYADSVKGRFTISRDNSKNTLYLQMNSLRAEDTAVYYCARVGHGGNSDYWGQGTLVTVSS VL: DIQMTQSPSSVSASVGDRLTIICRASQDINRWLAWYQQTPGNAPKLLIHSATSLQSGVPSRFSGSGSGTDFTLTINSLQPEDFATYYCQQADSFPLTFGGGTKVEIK")
0.04

So for C5A (XPA23) VH Y107R (antibody, V domains shown) VH: EVQLLESGGGLVQPGGSLRLSCAASGFTFSKYFMFWVRQAPGKGLEWVSVISPSGGMTRYADSVKGRFTISRDNSKNTLYLQMNSLRAEDTAVYYCARVGYGGNSDRWGQGTLVTVSS VL: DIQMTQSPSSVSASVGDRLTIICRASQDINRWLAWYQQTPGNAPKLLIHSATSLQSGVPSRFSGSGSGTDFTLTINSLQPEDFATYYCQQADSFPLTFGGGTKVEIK , the logged fold difference in affinity vs original turned out to be 0.85
